Source: patent US20230172206A1

test system: Phakopsora pachyrhizi (F129L); assay: Protective control of soybean rust on soybeans (PHAKPA P6); assay type: in vivo; conditions: protective P6, 16 ppm, soybean rust F129L isolate
Label true when % PHAKPA (F129L) Disease level P6 at 16 ppm is at or above 4%; otherwise label false.

Confirm if % PHAKPA (F129L) Disease level P6 at 16 ppm reported for the compound CO/N=C(/C(=O)OC)c1cccc(C)c1CO/N=C(\C)c1c(F)ccc(F)c1OC(F)(F)F [compound 366] is 4% or above.
true

***
Confirm if % PHAKPA (F129L) Disease level P6 at 16 ppm reported for the compound CNC(=O)/C(=N/OC)c1cccc(C)c1CO/N=C(\C)c1ccc(F)cc1OC(F)(F)F [compound 378] is 4% or above.
false

What do you have for CNC(=O)/C(=N/OC)c1cccc(C)c1CO/N=C(\COC)c1ccccc1 [compound 295] ?
false

What do you have for CNC(=O)/C(=N/OC)c1cccc(C)c1CO/N=C(\C)c1ccccc1C1CC1(F)F (stereo not shown) [compound 288] ?
true

What do you have for CO/N=C(/C(=O)OC)c1cccc(C)c1CO/N=C(\C)c1cccc(C(C)(F)F)c1 [compound 302] ?
false

---

test system: Phakopsora pachyrhizi (F129L); assay: Protective control of soybean rust on soybeans (PHAKPA P6); format: in vivo; conditions: protective P6, 16 ppm, soybean rust F129L isolate
// returns criterion not met unless % PHAKPA (F129L) Disease level P6 at 16 ppm is strictly below 20%, in which case criterion met

Please check: % PHAKPA (F129L) Disease level P6 at 16 ppm for `CNC(=O)/C(=N/OC)c1cccc(C)c1CO/N=C(\C)c1ccccc1CC(F)(F)F` , strictly under 20% or not?
criterion met

What do you have for `CO/N=C(/C(=O)OC)c1cccc(C)c1CO/N=C(\C)c1cccc(F)c1C(F)(F)F` ?
criterion met

What do you have for `CO/N=C(/C(=O)OC)c1cccc(C)c1CO/N=C(\C)c1c(F)cc(F)cc1OC(F)(F)F` ?
criterion not met

---

system: Phakopsora pachyrhizi (F129L); experiment: Protective control of soybean rust on soybeans (PHAKPA P2); type: in vivo; conditions: protective P2, 16 ppm, soybean rust F129L isolate
experimentalReadout: % PHAKPA (F129L) Disease level P2 at 16 ppm (%)
Give bare numbers, in %.

These recorded examples may help you get a feel for the data.
Query (compound): `CNC(=O)/C(=N/OC)c1cccc(C)c1CO/N=C(\C)c1ccccc1COC` ; field requested: % PHAKPA (F129L) Disease level P2 at 16 ppm
60

What do you have for `CNC(=O)/C(=N/OC)c1cccc(C)c1CO/N=C(\C)c1cc(Cl)c(F)c(Cl)c1` ?
2

What do you have for `CO/N=C(/C(=O)OC)c1cccc(C)c1CO/N=C(\C)c1ccccc1OC(F)F` ?
87

Then this compound:
Query (compound): `CO/N=C(/C(=O)OC)c1cccc(C)c1CO/N=C(\C)c1ccc(F)cc1C(F)(F)F` ; field requested: % PHAKPA (F129L) Disease level P2 at 16 ppm
15

---

test system: Phakopsora pachyrhizi (F129L); assay: Protective control of soybean rust on soybeans (PHAKPA P6); type: in vivo; settings: protective P6, 16 ppm, soybean rust F129L isolate
Give % PHAKPA (F129L) Disease level P6 at 16 ppm for every item shown.
Quick note: number first, unit second.

These recorded examples may help you get a feel for the data.
Query (compound): `CNC(=O)/C(=N/OC)c1cccc(C)c1CO/N=C(\C)c1cccc(N2CC(F)(F)C2)c1` ; field requested: % PHAKPA (F129L) Disease level P6 at 16 ppm
18%

What do you have for `CNC(=O)/C(=N/OC)c1cccc(C)c1CO/N=C(\C)c1ccc(OC(F)(F)F)cc1C` ?
32%

What do you have for `CNC(=O)/C(=N/OC)c1cccc(C)c1CO/N=C(\C)c1cc(Cl)c(F)c(Cl)c1` ?
8%

What do you have for `C#Cc1cc(F)c(F)c(/C(C)=N/OCc2c(C)cccc2/C(=N\OC)C(=O)OC)c1` ?
20%

What do you have for `CNC(=O)/C(=N/OC)c1cccc(C)c1CO/N=C(\C)c1cc(Br)cc(F)c1F` ?
12%

Give % PHAKPA (F129L) Disease level P6 at 16 ppm for each listed item.
1. CO/N=C(/C(=O)OC)c1cccc(C)c1CO/N=C(\C)c1ccc(Oc2ccc(Cl)cc2)cc1C(F)(F)F
2. CNC(=O)/C(=N/OC)c1cccc(C)c1CO/N=C(\C)c1cc(F)ccc1F
3. CO/N=C(/C(=O)OC)c1cccc(C)c1CO/N=C(\C)c1cccc(C2CC2)c1
4. CNC(=O)/C(=N/OC)c1cccc(C)c1CO/N=C(\C)c1ccc(Cl)cc1OC(F)(F)F
5. CO/N=C(/C(=O)OC)c1cccc(C)c1CO/N=C(\C)c1ccc(OC(F)(F)F)cc1Cl

1: 25%; 2: 0%; 3: 37%; 4: 6%; 5: 17%

Give % PHAKPA (F129L) Disease level P6 at 16 ppm for each listed item.
1. CNC(=O)/C(=N/OC)c1cccc(C)c1CO/N=C(\C)c1ccc(F)cc1C(F)(F)F
2. CNC(=O)/C(=N/OC)c1cccc(C)c1CO/N=C(\C)c1cc(C(F)(F)F)cc(F)c1NC
3. CNC(=O)/C(=N/OC)c1cccc(C)c1CO/N=C(\C)c1ccc(OC)cc1C(F)(F)F
4. CNC(=O)/C(=N/OC)c1cccc(C)c1CO/N=C(\C)c1c(F)ccc(F)c1OC(F)(F)F
5. CO/N=C(/C(=O)OC)c1cccc(C)c1CO/N=C(\C)c1ccc(OC)cc1OC(F)(F)F

0%
77%
0%
0%
38%

Give % PHAKPA (F129L) Disease level P6 at 16 ppm for each listed item.
1. CO/N=C(/C(=O)OC)c1cccc(C)c1CO/N=C(\C)c1c(C)cccc1F
2. CO/N=C(/C(=O)OC)c1cccc(C)c1CO/N=C(\C)c1ccc(F)cc1C(F)(F)F
3. CO/N=C(/C(=O)OC)c1cccc(C)c1CO/N=C(\C)c1cc(F)ccc1C(F)(F)F
4. CNC(=O)/C(=N/OC)c1cccc(C)c1CO/N=C(\C)c1cccc(C(C)(F)F)c1
5. CO/N=C(/C(=O)OC)c1cccc(C)c1CO/N=C(\C)c1ccc(Cl)cc1C(F)(F)F
6. CNC(=O)/C(=N/OC)c1cccc(C)c1CO/N=C(\C)c1ccccc1C(C)(F)F
7. CO/N=C(/C(=O)OC)c1cccc(C)c1CO/N=C(\CC(F)(F)F)c1cccc(C(F)(F)F)c1

35%
22%
43%
0%
37%
16%
80%
